TEST: Stability tests in rat plasma (QC samples, HPLC-MS)
EXPERIMENTAL_CONTEXT: Placing plasma for 6h at 4°C, spiked 1600 ng/mL, n=5
READOUT_KIND: Stability: RE (%)
Write the value in % as a bare number.

# annotated cases, reported Stability: RE shown
INSERT INTO assay_data (molecule, value_reported) VALUES
  ('CC(C)=CCC[C@](C)(O[C@@H]1O[C@H](CO)[C@@H](O)[C@H](O)[C@H]1O)[C@H]1CC[C@]2(C)[C@@H]1[C@H](O)C[C@@H]1[C@@]3(C)CC[C@H](O)C(C)(C)[C@@H]3[C@@H](O[C@@H]3O[C@H](CO)[C@@H](O)[C@H](O)[C@H]3O[C@@H]3OC[C@@H](O)[C@H](O)[C@H]3O)C[C@]12C [R1, notoginsenoside R1]', 6.16),
  ('C[C@H]1COC2=C1C(=O)C(=O)c1c2ccc2c1CCCC2(C)C', 18.14),
  ('CC(C)=CCC[C@](C)(O[C@@H]1O[C@H](CO)[C@@H](O)[C@H](O)[C@H]1O)[C@H]1CC[C@]2(C)[C@@H]1[C@H](O)C[C@@H]1[C@@]3(C)CC[C@H](O[C@@H]4O[C@H](CO)[C@@H](O)[C@H](O)[C@H]4O[C@@H]4O[C@H](CO)[C@@H](O)[C@H](O)[C@H]4O)C(C)(C)[C@@H]3CC[C@]12C [Rd, ginsenoside Rd]', 18.23),
  ('Cc1coc2c1C(=O)C(=O)c1c-2ccc2c1CCCC2(C)C', 20.84);

Task: Any idea what its Stability: RE is? The molecule is CC(C)=CCC[C@](C)(O[C@@H]1O[C@H](CO[C@@H]2O[C@H](CO)[C@@H](O)[C@H](O)[C@H]2O)[C@@H](O)[C@H](O)[C@H]1O)[C@H]1CC[C@]2(C)[C@@H]1[C@H](O)C[C@@H]1[C@@]3(C)CC[C@H](O[C@@H]4O[C@H](CO)[C@@H](O)[C@H](O)[C@H]4O[C@@H]4O[C@H](CO)[C@@H](O)[C@H](O)[C@H]4O)C(C)(C)[C@@H]3CC[C@]12C [Rb1, ginsenoside Rb1]
Output: 2.97

Task: One more molecule: Cc1coc2c1C(=O)C(=O)c1c-2ccc2c(C)cccc12
Output: 10.74

Task: One more molecule: Cc1cccc2c3c(ccc12)C1=C(C(=O)C3=O)[C@@H](C)CO1 [DHTS I, dihydrotanshinone I]
Output: 8.45
